TARGET ENTITY: human plasma-derived Factor IXa (human, UniProt P00740 47-191; P00740 227-461)
Sequence (P00740 47-191, chain 1 of 2): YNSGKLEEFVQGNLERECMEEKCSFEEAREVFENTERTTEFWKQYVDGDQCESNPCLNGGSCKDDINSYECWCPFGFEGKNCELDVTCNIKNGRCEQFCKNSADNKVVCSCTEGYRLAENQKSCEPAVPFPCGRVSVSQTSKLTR
Sequence (P00740 227-461, chain 2 of 2): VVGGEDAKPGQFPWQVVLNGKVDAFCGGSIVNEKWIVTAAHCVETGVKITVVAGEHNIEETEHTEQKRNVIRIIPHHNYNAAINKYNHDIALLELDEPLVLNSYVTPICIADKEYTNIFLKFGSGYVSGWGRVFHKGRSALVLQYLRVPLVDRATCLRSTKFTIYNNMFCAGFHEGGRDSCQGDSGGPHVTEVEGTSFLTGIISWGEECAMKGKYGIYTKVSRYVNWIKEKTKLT
TEST NAME: cell-based or functional assay
QUANTITY KIND: Stimulation Index, FXa generation assay, 800 nM OA antibody (fold)
The figure you give is taken to be in fold; do not add the unit.

Consider the reported Stimulation Index, FXa generation assay, 800 nM OA antibody for these binders:
BINDER	REPORTED MEASUREMENT
one-armed (OA) mAb11-1278 (antibody, V domains shown) VH: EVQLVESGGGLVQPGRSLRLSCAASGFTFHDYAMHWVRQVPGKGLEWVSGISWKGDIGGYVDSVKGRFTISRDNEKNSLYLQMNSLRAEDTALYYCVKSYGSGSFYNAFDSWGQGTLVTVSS VL: DIQMTQSPSTLSASVGDRVTITCRASQSISSWLAWYQQKPGKAPKFLIYKASRLDRGTPSRFSGSGSGTEFSLTISSLQPDDFATYYCLEYQSYIRTFGQGTKVEIK	1690
one-armed (OA) mAb11-1030 (antibody, V domains shown) VH: EVQLVESGGGLVQPGRSLRLSCAASKFTFHDYAMHWVRQVPGKGLEWVSGISWKGDIGGYVDSVKGRFTISRDNAKNSLYLQMNSLRAEDTALYYCAKSYGSGSFYNAFDSWGQGTLVTVSS VL: DIQMTQSPSTLSASVGDRVTITCRASQSISSWLAWYQQKPGKAPKFLIYKASKLDRGTPSRFSGSGSGTEFTLTISSLQPDDFATYYCLEYSSYIRTFGQGTKVEIK	5750
one-armed (OA) mAb11-0923 (antibody, V domains shown) VH: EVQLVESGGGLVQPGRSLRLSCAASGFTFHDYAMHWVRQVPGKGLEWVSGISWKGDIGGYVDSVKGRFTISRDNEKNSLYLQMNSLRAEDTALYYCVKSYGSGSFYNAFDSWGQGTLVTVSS VL: DIQMTQSPSTLSASVGDRVTITCRASQSISSWLAWYQQKPGKAPKFLIYKASRLDRGCPSRFSGSGSGTEFSLTISSLQPDDFATYYCLEYSSYIRTFGQGTKVEIK	2820
one-armed (OA) mAb11-0965 (antibody, V domains shown) VH: EVQLVESGGGLVQPGRSLRLSCAASKFTFHDYAMHWVRQAPGKGLEWVSGISWKGDIGGYADSVKGRFTISRDNAKNSLYLQMNSLRAEDTALYYCAKSYGSGSFYNAFDSWGQGTLVTVSS VL: DIQMTQSPSTLSASVGDRVTITCRASQSISSWLAWYQQKPGKAPKFLIYKASKLERGTPSRFSGSGSGTEFTLTISSLQPDDFATYYCLEYSSYIRTFGQGTKVEIK	2860

--- query ---
Problem: Recorded Stimulation Index, FXa generation assay, 800 nM OA antibody of one-armed (OA) mAb11-0931 (antibody, V domains shown) VH: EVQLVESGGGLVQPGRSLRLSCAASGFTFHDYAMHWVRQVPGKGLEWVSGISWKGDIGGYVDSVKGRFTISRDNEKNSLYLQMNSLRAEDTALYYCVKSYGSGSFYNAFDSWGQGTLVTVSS VL: DIQMTQSPSTLSASVGDRVTITCRASQSISSWLAWYQQKPGKAPKFLIYKASRLDRGLPSRFSGSGSGTEFSLTISSLQPDDFATYYCLEYSSYIRTFGQGTKVEIK , please.
Result: 1880

Data provenance: patent US20260193376A1
